Assign Kd to each entry below.
Target: T1, EsCas13d, nuclease-dead (Eubacterium siraeum, UniProt B0MS50, R295A;H300A;R849A;H854A)
T1 sequence: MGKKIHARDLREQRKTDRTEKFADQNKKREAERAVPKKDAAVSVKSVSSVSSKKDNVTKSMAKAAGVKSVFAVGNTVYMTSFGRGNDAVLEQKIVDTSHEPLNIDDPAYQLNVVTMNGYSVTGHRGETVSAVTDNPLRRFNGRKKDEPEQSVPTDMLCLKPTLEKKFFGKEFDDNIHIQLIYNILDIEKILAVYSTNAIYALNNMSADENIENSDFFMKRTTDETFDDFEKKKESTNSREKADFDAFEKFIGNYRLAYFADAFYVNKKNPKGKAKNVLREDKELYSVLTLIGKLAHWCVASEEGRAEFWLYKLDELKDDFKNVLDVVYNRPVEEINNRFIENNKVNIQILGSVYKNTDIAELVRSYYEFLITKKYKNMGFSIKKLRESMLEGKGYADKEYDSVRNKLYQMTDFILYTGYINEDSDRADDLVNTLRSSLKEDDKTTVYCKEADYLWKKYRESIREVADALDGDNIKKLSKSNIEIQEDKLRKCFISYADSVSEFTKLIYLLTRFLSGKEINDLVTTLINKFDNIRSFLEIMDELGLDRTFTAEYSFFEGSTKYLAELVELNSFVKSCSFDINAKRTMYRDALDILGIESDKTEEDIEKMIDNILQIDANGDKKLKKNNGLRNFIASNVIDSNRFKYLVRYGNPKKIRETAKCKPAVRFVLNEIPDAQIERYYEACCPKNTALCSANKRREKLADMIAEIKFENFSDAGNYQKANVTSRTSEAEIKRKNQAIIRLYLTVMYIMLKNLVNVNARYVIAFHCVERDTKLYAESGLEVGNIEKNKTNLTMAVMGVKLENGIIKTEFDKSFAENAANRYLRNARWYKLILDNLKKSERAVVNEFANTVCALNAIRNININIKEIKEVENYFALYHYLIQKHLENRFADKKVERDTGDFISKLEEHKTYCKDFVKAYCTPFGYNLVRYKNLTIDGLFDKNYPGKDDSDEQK
Assay: crRNA (strand 1, pre-loaded); Mg2+; 40 mM Tris-HCl pH 7.5, 150 mM NaCl, 6 mM MgCl2, 1 mM DTT, 0.1% Tween-20, 0.2 mg/ml BSA; 25 C; 10 min per concentration, then washed
Conditions: tags: His6-TwinStrep-SUMO cleaved; N-terminal SNAP kept (SNAP-Surface 488); label: 3' end held by stalled T7 RNA polymerase
Numbers only, in nM.

Examples with answers:
[
  {
    "binder": "target 2 MT 5'PFS UUA 3'PFS CAA (mixed) RNA 1: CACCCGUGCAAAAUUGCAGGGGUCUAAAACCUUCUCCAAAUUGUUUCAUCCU RNA 2: GGGAAUGGAUCCACAUCUACGAAUUCUUAAGGAUGAAACAAUUUGGAGAAGCAAAGAUCGGAAGAGCACACGU",
    "Kd [nM]": 14.4
  },
  {
    "binder": "target 2 MT 5'PFS GAA 3'PFS ACG (mixed) RNA 1: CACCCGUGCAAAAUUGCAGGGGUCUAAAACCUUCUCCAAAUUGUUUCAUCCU RNA 2: GGGAAUGGAUCCACAUCUACGAAUUCGAAAGGAUGAAACAAUUUGGAGAAGACGAGAUCGGAAGAGCACACGU",
    "Kd [nM]": 11
  },
  {
    "binder": "target 1 MT 5'PFS CAG 3'PFS ACA (mixed) RNA 1: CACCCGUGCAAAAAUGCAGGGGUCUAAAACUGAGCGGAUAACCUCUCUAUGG RNA 2: GGGAAUGGAUCCACAUCUACGAAUUCCAGCCAUAGAGAGGUUAUCCGCUCAACAAGAUCGGAAGAGCACACGU",
    "Kd [nM]": 31
  },
  {
    "binder": "target 1 insA 3' of 10,insG 3' of 6 (mixed) RNA 1: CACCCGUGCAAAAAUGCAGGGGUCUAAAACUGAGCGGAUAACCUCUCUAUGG RNA 2: GGGAAUGGAUCCACAUCUACGAAUUCGUACCAUAGAGAGGUUAAUCCGGCUCACCGAGAUCGGAAGAGCACACGU",
    "Kd [nM]": 9.9
  },
  {
    "binder": "target 1 complement block 7-12 (mixed) RNA 1: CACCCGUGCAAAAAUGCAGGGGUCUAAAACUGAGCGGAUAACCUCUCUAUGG RNA 2: GGGAAUGGAUCCACAUCUACGAAUUCGUACCAUAGAGAGCAAUAGCGCUCACCGAGAUCGGAAGAGCACACGU",
    "Kd [nM]": 16.6
  }
]

Each of the following entries comes with a recorded value; kindly state Kd for each.
1. target 1 del5,del15 (mixed) RNA 1: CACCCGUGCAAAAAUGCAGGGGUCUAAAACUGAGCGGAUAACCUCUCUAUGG RNA 2: GGGAAUGGAUCCACAUCUACGAAUUCGUACCAUAGAAGGUUAUCCCUCACCGAGAUCGGAAGAGCACACGU
2. target 1 U3A,G13A (mixed) RNA 1: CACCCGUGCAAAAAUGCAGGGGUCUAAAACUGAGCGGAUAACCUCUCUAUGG RNA 2: GGGAAUGGAUCCACAUCUACGAAUUCGUACCAUAGAGAAGUUAUCCGCACACCGAGAUCGGAAGAGCACACGU

(A)
1. 27.3
2. 7.7
